# Tested on: HCT-15 colon
# method-summary: NCI tumour cell line growth inhibition, 48 h
measurement-label: TGI

Determine from records and report TGI for `COc1ccccc1Nc1nc2c([nH]1)c(=O)n(C)c(=O)n2C` > 10 µM

For CCOc1cc(C2CC(c3ccc(NS(=O)(=O)c4cc([N+](=O)[O-])ccc4C)cc3)=NN2S(=O)(=O)c2cc([N+](=O)[O-])ccc2C)ccc1O (centres undefined) , write its TGI. > 100 µM

Supply reported TGI belonging to this compound: `O=C(CSCC(=O)N/N=C/c1ccc2c(c1)OCO2)N/N=C/c1ccc2c(c1)OCO2` > 100 µM

Look up and report measured TGI for this entry: CC1(C)OC2C(CCP(=O)(O)O)OC(c3nc(C(N)=O)cs3)C2O1 (centres undefined) > 100 µM
